Biological target: T1, human BTLA (human, UniProt Q7Z6A9 31-289)
T1 construct: also called hBTLA; HEK293.hBTLA
T1 sequence: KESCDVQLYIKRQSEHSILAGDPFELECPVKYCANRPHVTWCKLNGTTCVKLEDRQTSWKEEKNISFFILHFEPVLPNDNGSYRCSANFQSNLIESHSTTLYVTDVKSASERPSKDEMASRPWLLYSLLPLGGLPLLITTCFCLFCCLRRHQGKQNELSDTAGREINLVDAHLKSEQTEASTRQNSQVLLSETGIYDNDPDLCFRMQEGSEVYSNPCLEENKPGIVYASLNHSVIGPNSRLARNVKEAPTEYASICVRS
Assay: flow cytometry, HEK293 cells overexpressing human BTLA
reported_metric: binding result

binder	observed_result
HFB6-4hz14-hG1 (antibody, human IgG1, V domains shown, Humanized variant of HFB6-4, human IgG1 (hG1)) VH: QVQLVQSGAEVKKPGASVKVSCKTSGFNIKDTYIHWVRQAPGQGLEWIGRNDPANGNTKYAQKFQGRVTMTADTSTSTVYMELSSLRSEDTAVYYCASYEGYYERFGYWGQGTLVTVSS VL: EIVLTQSPGTLSLSPGERATLSCRSSQSLLDRDGKTYLNWLQQKPGQAPRRLIYLVSKLDSGIPDRFSGSGSGTDFTLTISRLEPEDFAVYYCWQDTHFPYTFGQGTKLEIK	binds
HFB6-4hz1-hG1 (antibody, V domains shown, Humanized variant of HFB6-4, human IgG1 (hG1); Only VH and VL are tied to the name) VH: QVQLVQSGAEVKKPGSSVKVSCKTSGFNIKDTYIHWVRQAPGQGLEWIGRNDPANGNTKYAQKFQGRATITADESTSTAYMELSSLRSEDTAVYYCASYEGYYERFGYWGQGTLVTVSS VL: DIQMTQSPSSLSASVGDRVTITCRSSQSLLDRDGKSYLNWLQQKPGKAPKRLIYLVSKLDSGVPSRFSGSGSGTDFTLTISSLQPEDFATYYCWQDTHFPYTFGQGTKLEIK	binds
HFB6-4hz13-hG1 (antibody, human IgG1, V domains shown, Humanized variant of HFB6-4, human IgG1 (hG1)) VH: QVQLVQSGAEVKKPGSSVKVSCKTSGFNIKDTYIHWVRQAPGQGLEWIGRNDPANGNTKYAQKFQGRATITADESTSTAYMELSSLRSEDTAVYYCASYEGYYERFGYWGQGTLVTVSS VL: EIVLTQSPGTLSLSPGERATLSCRSSQSLLDRDGKTYLNWLQQKPGQAPRRLIYLVSKLDSGIPDRFSGSGSGTDFTLTISRLEPEDFAVYYCWQDTHFPYTFGQGTKLEIK	binds
